ASSAY SYSTEM: DR7 (DRB1*0701) (Homo sapiens, UniProt P01903+P01911, A100R/A102G/A103Q/D57E/D86V/E43K/F76Y/K127E/L162R/M171V/P40G/Q125H/Q99D/R33Q/R42Y/R54Q/S133A/S66F/T210M/V115G/Y107V/Y59L/Y89S)
PROTOCOL DESCRIPTION: biochemical
Assay type: binding
No end group written: not given here.
PROPERTY LABEL: IC50 (µM)

{"ITEM SEQUENCE": "KWGVLILALLRYKCG [Peptide 89.0027]", "PROPERTY LABEL": "IC50", "CENSOR SYMBOL": ">", "RECORDED NUMBER": 20}
{"ITEM SEQUENCE": "VKFLRYQQIEFVSFL [Peptide 89.0052]", "PROPERTY LABEL": "IC50", "CENSOR SYMBOL": "=", "RECORDED NUMBER": 4.59}
{"ITEM SEQUENCE": "ITHIGHQVVPPMAVS [Peptide 90.0010]", "PROPERTY LABEL": "IC50", "CENSOR SYMBOL": "=", "RECORDED NUMBER": 4.99}
{"ITEM SEQUENCE": "LIKFFQGSVISFVNS [Peptide 89.0135]", "PROPERTY LABEL": "IC50", "CENSOR SYMBOL": ">", "RECORDED NUMBER": 20}
{"ITEM SEQUENCE": "IHFIQGAVISFVNST [Peptide 89.0037]", "PROPERTY LABEL": "IC50", "CENSOR SYMBOL": "=", "RECORDED NUMBER": 0.338}
{"ITEM SEQUENCE": "ETCMLIEPPKLRSSV [Peptide 89.0084]", "PROPERTY LABEL": "IC50", "CENSOR SYMBOL": "=", "RECORDED NUMBER": 0.756}
{"ITEM SEQUENCE": "DWCIIGMGVTPSVAE [Peptide 89.0096]", "PROPERTY LABEL": "IC50", "CENSOR SYMBOL": "=", "RECORDED NUMBER": 2.64}

---

Catalogue of IC50 values
ASSAY SYSTEM: A*6801 (Homo sapiens, UniProt P04439, A269V/D185E/E176V/E277Q/E87N/F33Y/G231S/I121M/I166T/I218V/L180W/L300P/L318F/N151K/P208A/P217A/Q86R/R169H/T345S)
PROTOCOL DESCRIPTION: biochemical
Format: binding
No end group written: not given here.
PROPERTY LABEL: IC50 (nM)

{"ITEM SEQUENCE": "FLGAFKKFLK [Peptide 88.0169]", "CENSOR SYMBOL": "=", "RECORDED NUMBER": 275}
{"ITEM SEQUENCE": "AQVLHVLKRK [Peptide 88.0141]", "CENSOR SYMBOL": "=", "RECORDED NUMBER": 15800}
{"ITEM SEQUENCE": "VTVYYGVPVWR [Peptide 1525.01]", "CENSOR SYMBOL": "=", "RECORDED NUMBER": 29}
{"ITEM SEQUENCE": "YLALTALIK [Peptide 9017.0097]", "CENSOR SYMBOL": "=", "RECORDED NUMBER": 5900}
{"ITEM SEQUENCE": "AQVLHVLKR [Peptide 88.0335]", "CENSOR SYMBOL": "=", "RECORDED NUMBER": 6530}
{"ITEM SEQUENCE": "KGLGISYGRKK [Peptide 1577.23]", "CENSOR SYMBOL": ">", "RECORDED NUMBER": 20000}
{"ITEM SEQUENCE": "VFCGPANTGK [Peptide 88.0150]", "CENSOR SYMBOL": "=", "RECORDED NUMBER": 3000}
{"ITEM SEQUENCE": "LTKMFCQLAK [Peptide 1556.51]", "CENSOR SYMBOL": "=", "RECORDED NUMBER": 173}
{"ITEM SEQUENCE": "LVKMFCQLAK [Peptide 1556.50]", "CENSOR SYMBOL": "=", "RECORDED NUMBER": 221}
{"ITEM SEQUENCE": "KQLCDLLIR [Peptide 1513.14]", "CENSOR SYMBOL": ">", "RECORDED NUMBER": 20000}
{"ITEM SEQUENCE": "LVYRDDFPK [Peptide 88.0280]", "CENSOR SYMBOL": "=", "RECORDED NUMBER": 110}
{"ITEM SEQUENCE": "AILGHIVRPR [Peptide 9017.0226]", "CENSOR SYMBOL": "=", "RECORDED NUMBER": 234}
{"ITEM SEQUENCE": "WLIKRIRER [Peptide 9017.0122]", "CENSOR SYMBOL": "=", "RECORDED NUMBER": 50}
{"ITEM SEQUENCE": "RILSTCLGR [Peptide 9017.0073]", "CENSOR SYMBOL": "=", "RECORDED NUMBER": 1450}
